Target: DNA-PK phosphorylation at serine 2056 (Homo sapiens (Human))
Assay: DNA-PK phosphorylation at serine 2056 (cellular), bleomycin-treated HCT116 cells, ELISA
Format: cell-based
Conditions: cellular DNA-PK phosphorylation at serine 2056, HCT116; read-out: IC50 pDNA-PK
Protocol: HCT116 cells were cultivated at 37° C. and 10% CO2 in MEM alpha medium with 10% of foetal calf serum and 2 mM glutamine. The cells were detached from the base of the culture vessels with the aid of trypsin/EDTA, centrifuged off in centrifuge tubes, taken up in fresh medium, and the cell density was determined. […] The development of the enzymatic reaction was carried out with the aid of a chemiluminescent reagent, the chemiluminescence was measured with the aid of a Mithras LB940. […]
pIC50: −log10 of the molar value.
Consider the following molecules; for each one, report its pIC50.

molecule | quantity | result
COc1nccnc1C(O)c1cc(-c2ncnc3cc(N4CCOCC4)ccc23)c(F)cc1F (centres unmarked) [Example 453] | pIC50 | > 6.30

Respectfully, I request pIC50 for each entry included below.
1. COc1cncnc1C(O)c1cc(-c2ncnc3cc(N4CCOCC4)ccc23)ccc1Cl (centres unmarked) [Example 413]
2. [2H]C1([2H])OC([2H])([2H])C([2H])([2H])N(c2ccc3c(-c4cc(C(O)c5nccnc5OC)c(Cl)cc4F)ncnc3c2)C1([2H])[2H] (centres unmarked) [Example 258]
3. COc1cncnc1C(O)c1cc(-c2ncnc3cc(N4CCOCC4)ccc23)ccc1Cl (centres unmarked) [Example 409]

[out]
5.30 to 6.30
> 6.30
5.30 to 6.30

Dear colleague, could you send me pIC50 for each of the items below? Thanks.
1. OC(c1ccc(F)c(-c2ncnc3cc(N4CCOCC4)ccc23)c1)c1ncccc1Br (centres unmarked)
2. COc1ccc(C(O)c2ccc(F)c(-c3ncnc4cc(N5CCOCC5)c(F)cc34)c2)nn1 (centres unmarked)
3. COc1nccnc1C(O)c1cc(-c2ncnc3cc(N4CCOCC4)cc(F)c23)c(F)cc1Cl (centres unmarked) [Example 249]
4. COc1nccnc1C(O)c1cc(-c2ncnc3cc(N4CCOCC4)ccc23)ccc1F (centres unmarked)

[out]
> 6.30
4.52 to 5.00
> 6.30
5.30 to 6.30

Parameter requested: pIC50. Apply to each item below.
1. Cc1nccnc1[C@@H](O)c1ccc(F)c(-c2ncnc3cc(N4CCOCC4)cc(F)c23)c1
2. Cc1nccnc1C(C(N)=O)c1cc(-c2ncnc3cc(N4CCOCC4)ccc23)c(F)cc1F (centres unmarked)
3. Cc1nccnc1C(O)c1cc(-c2ncnc3cc(N4CCOCC4)sc23)c(F)cc1Cl (centres unmarked)

[out]
5.30 to 6.30
5.00 to 5.30
> 6.30
